system: panel of nearly 500 cancer cell lines; experiment: Cancer Cell Line Encyclopedia profiling, 3-day CellTiter-Glo; assay type: cell-based; conditions: Homo sapiens, HCC44
READOUT LABEL: IC50

Value lookup for IC50; key = CN(C)C(=O)c1cc2cnc(Nc3ccc(N4CCNCC4)cn3)nc2n1C1CCCC1 [Ribociclib]
> 8 µM

----------
system: panel of nearly 500 cancer cell lines; assay: Cancer Cell Line Encyclopedia profiling, 3-day CellTiter-Glo; type: cell-based; conditions: PK-59
READOUT LABEL: IC50

Value lookup for IC50; key = CN(C)C(=O)c1cc2cnc(Nc3ccc(N4CCNCC4)cn3)nc2n1C1CCCC1
> 8 µM
